These measurements were taken from patent US20250034594A1.

- Tested on: gene editing with Cas9
- protocol.description: Screen of 322 new SSAP proteins, gene editing activity with Cas9 (Table 5)
- Assay type: cell-based
- measurement.setup: normalized
Cas9 with SSAP activity (normalized) values, listed per item

{"columns": ["molecule", "Cas9 with SSAP activity (normalized)"],
 "data": [
  ["SSAP_294: SEQ ID NO: 463; Parageobacillus thermoglucosidasius (protein, listed as Parageobacillus thermoglucosidasius) AKQADLKNKLANKNSTNPTAYLKNLVYAPTVQQKFKEVLKEKAAHFLTSLISLVDSSPDLQKCNPMTIIASAMKAATLELPIDKNLGYAWIVPYKNVATFQIGYKGYIQLALRTGLYRSINVIEVYEGELRKWNRLTEELDIDEGARKSDHVIGYAGYFELTNGFIKRVYWSKEDIERHRKKFAKSDFGWENNYDAMAKKTVLRNMLSKWGILSIDMQRAYVNDIDDPEQTKEVIDVEWSEIIEEANVANSPEQQEIVFEQ", "−2.102"],
  ["SSAP_260: SEQ ID NO: 429; Clostridium cochlearium (protein, listed as Clostridium cochlearium) ATNESLKNQLATKKETGIGSAGNTIKSLINSPVIKKRFEEVLDKRAPQYMSSIVNLVNSDTNLKKCDQMSVIASCMVAATMDLPVDKNLGYAWIVPYGNKAQFQMGYKGYVQLALRTGQYKSINVIEVHEGELEEWNPLTEELKIDFSKKESDAVIGYAGYFELLNGFKKSTYWTKEQITKHKNKFSKSDFGWKKDFDAMAKKTVLRNMLSKWGILSIEMQNAYTADHGVIKNEIMETGEVKENVEYIEADFESYEGTSIEEGGSNE", "−0.581"]
]}
